# method summary: yeast growth modulation, basal conditions, primary screen, YJM789 clinical isolate, OD600, 24 h (AID 1089);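 note: growth of clinical yeast isolate S. cerevisiae YJM 789 seeded 1000 cells per well; test concentration not given here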
# measurement conditions: S. cerevisiae YJM789 growth, higher = more signal, called active from +8 up or from −8 down
Returns one of True or False; True when z-score is >= -0.2.

Sample answers from the record:
{"compound": "CCCNC(=O)OC[C@H]1O[C@H](CCON=C(C)CCN2CCc3nc(-c4ccccc4)c(-c4ccccc4)cc3C2)C=C[C@@H]1Oc1ccc(OC)cc1", "label": "True"}
{"compound": "CCOC(=O)CCN1C(=O)[C@H]2[C@H]3[C@H](O)[C@H](O)CC(=NNC(=O)OCC)[C@@H]3CC[C@H]2C1=O", "label": "False"}
{"compound": "CC(C)=NO[C@@H](C)c1cc(-c2c(C)cc(C)cc2C)no1", "label": "True"}
{"compound": "CCOC(=O)[C@H](Cc1ccccc1)NC(=O)CCC1CC(OC(=O)NCc2cccc3ccccc23)CC2(CCCC(COC(=O)NCCCN3CCCC3=O)O2)O1 (stereo not given in full)", "label": "False"}

Field: next compound
Assess whether reported z-score for "CC(C)=CCCC(C)=CCON=C1C[C@@H](O)[C@@H](O)[C@@H]2[C@@H]3C(=O)N([C@@H](C)c4ccccc4)C(=O)[C@@H]3CC[C@H]12" sits at -0.2 or higher.
False

----------
# method summary: basal HepG2 mitochondrial membrane potential changes, profiling panel, cell-based, JC-1 fluorescence, 24 h, 100 nL compound (AID 1167); note: test concentration not given here
# measurement conditions: higher = more signal
property: z-score
Output: the number by itself.

Check out these entries, answers already filled in.
{"smiles representation": "CCOC(=O)NN=C1C[C@@H](O)[C@@H](O)[C@@H]2[C@@H]3C(=O)N(Cc4ccc5c(c4)OCO5)C(=O)[C@@H]3CC[C@@H]12", "experimental result": 0.598}
{"smiles representation": "COc1ccc(COC(=O)NN=C2C[C@@H](O)[C@@H](O)[C@@H]3[C@@H]4C(=O)N(C(C)(C)C)C(=O)[C@@H]4CC[C@H]23)cc1", "experimental result": -0.206}
{"smiles representation": "CC(C)=CCCC(C)=CCON=C1C[C@@H](O)[C@@H](O)[C@@H]2[C@@H]3C(=O)N([C@@H](C)c4ccccc4)C(=O)[C@@H]3CC[C@H]12", "experimental result": 0.374}

We now examine a further molecule.
Give z-score for the following molecule: "CO[C@H]1COC(=O)[C@H](C)NC(=O)CC=C[C@@H](C)[C@H](OC)COC(=O)CC=C[C@@H]1C"
0.573

----------
# method summary: binders of probe aFSTL3 on microarray, primary screen, stem cell growth factor project, biochemical, small-molecule microarray, fluorescence 635/667 (AID 1064);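 note: measures binding of the biotinylated anti-FSTL3 antibody to printed compounds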
# measurement conditions: higher = more signal
property: composite z-score
Output: the number by itself.

Specify reported composite z-score for the compound shown: "COc1ccc(COC(=O)NN=C2C[C@@H](O)[C@@H](O)[C@@H]3[C@@H]4C(=O)N(C(C)(C)C)C(=O)[C@@H]4CC[C@H]23)cc1"
-0.494

Supply measured composite z-score of "CO[C@@H]1C=CCC(=O)N2CCC[C@H]2C(=O)OC[C@H](C)C(=O)OC[C@H]1C" in your reply.
-0.368

Fill in reported composite z-score for this entry: "C[C@@H]1CC[C@@H](C(=O)O)N[C@H]1c1ccc(-c2ccco2)cc1"
-0.462

Give recorded composite z-score. "CC(C)=CCCC(C)=CCON=C1C[C@@H](O)[C@@H](O)[C@@H]2[C@@H]3C(=O)N([C@@H](C)c4ccccc4)C(=O)[C@@H]3CC[C@H]12"
-0.372

Name the recorded composite z-score of the item "C[C@@H](c1ccccc1)N1C(=O)[C@H]2[C@H]3[C@H](O)[C@H](O)CC(=O)[C@@H]3CC[C@H]2C1=O" in your answer.
-0.289

Supply reported composite z-score belonging to this compound: "CC(C)=NOCc1ccc(-c2cn([C@@H]3COC[C@H]3O)nn2)cc1"
-0.401

Give composite z-score for the following compound: "CCOC(=O)NN=C1C[C@@H](O)[C@@H](O)[C@@H]2[C@@H]3C(=O)N(Cc4ccc5c(c4)OCO5)C(=O)[C@@H]3CC[C@@H]12"
-0.441

Identify measured composite z-score associated with "Cc1ccc(S(=O)(=O)N[C@H]2COC(=O)[C@@H](C)COC(=O)[C@H](C)NC(=O)CC=C[C@H]2C)cc1"
-0.574

Provide composite z-score value for the following compound: "CC(=O)OC[C@H]1O[C@H](C#CC(C)(C)C)C=C[C@@H]1OC(C)=O"
-0.358

Quickly give me recorded composite z-score for "CC(C)=NO[C@@H](C)c1cc(-c2c(C)cc(C)cc2C)no1"
1.18

Note composite z-score for the compound shown: "CC(C)CON=C1C[C@@H](O)[C@@H](O)[C@@H]2[C@@H]3C(=O)N(c4cccc(Oc5ccccc5)c4)C(=O)[C@@H]3CC[C@H]12"
-0.273
